Assay: recombinant barcode read abundance after kanamycin selection (control-corrected) (log10(CPM+1)); higher = more efficient recombination; sequences stand for … in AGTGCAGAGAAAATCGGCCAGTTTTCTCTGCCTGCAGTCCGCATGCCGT…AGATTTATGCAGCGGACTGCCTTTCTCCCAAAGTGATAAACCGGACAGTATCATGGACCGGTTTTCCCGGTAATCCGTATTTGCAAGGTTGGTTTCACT; site = the 11-nt target
MEASURED_QUANTITY: recombinant barcode read abundance (log10)
// return just the number, without any unit appended

Worked cases, answers included:
In [3]: df
Out[3]:
                              sequence_data  experimental_value
0  TCCAAGCCTTGGGTTCTAACCTGTTGCAG (site TCCAACCCTCT)              0.0251
1  CACAGATCTTGGGTTCTAACCTGTTGCTT (site CAGAGATCTAA)               0.122
2  TGTGAGTCTTGGGTTCTAACCTGTTGCAT (site TGTGAGTCTAA)               0.107
3  GCCGATTCTTGGGTTCTAACCTGTTGCCT (site GCCGATTCTAG)              0.0394
4  CGGGCCTCTTGGGTTCTAACCTGTTGCTT (site CGGGCCTCTGA)               0.469

Input line: Fill in the blank: the reported recombinant barcode read abundance (log10) of GGTCCACCTTGGGTTCTAACCTGTTGCCT (site GGTCCACCTAG) is ____.
Output line: 1.07

Input line: Fill in the blank: the reported recombinant barcode read abundance (log10) of CTCTATCCTTGGGTTCTAACCTGTTGCGT (site CTCTATCCTAC) is ____.
Output line: 0.551

Input line: Fill in the blank: the reported recombinant barcode read abundance (log10) of CGGAGAGCTTGGGTTCTAACCTGTTGCCT (site CTGAGAGCTAG) is ____.
Output line: 0

Input line: Fill in the blank: the reported recombinant barcode read abundance (log10) of TGGGATCCTTGGGTTCTAACCTGTTGCAT (site AGGGGTCCTAT) is ____.
Output line: 0.0813

Input line: Fill in the blank: the reported recombinant barcode read abundance (log10) of CTATCGACTTGGGTTCTAACCTGTTGCCT (site CTATAGACTAG) is ____.
Output line: 0.0416

Input line: Fill in the blank: the reported recombinant barcode read abundance (log10) of TCCGCTCCTTGGGTTCTAACCTGTTGCCT (site TCCGCTACTAG) is ____.
Output line: 0.177

Input line: Fill in the blank: the reported recombinant barcode read abundance (log10) of ATGAATGCTTGGGTTCTAACCTGTTGCCT (site ATGATTGCTAG) is ____.
Output line: 0.0173

====

Assay: recombinant UMI read abundance after kanamycin selection (control-corrected) (log10(CPM+1)); higher = more efficient recombination; extreme values may be limits of the assay; sequences stand for … in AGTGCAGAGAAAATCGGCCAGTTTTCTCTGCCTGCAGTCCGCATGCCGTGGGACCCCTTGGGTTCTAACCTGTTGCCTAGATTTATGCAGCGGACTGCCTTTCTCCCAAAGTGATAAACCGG…AGGTTGGTTTCACT; site = the 11-nt donor
MEASURED_QUANTITY: recombinant UMI read abundance (log10)
// return just the number, without any unit appended

Worked cases, answers included:
>>> df
                              sequence_data  experimental_value
0  GGGTCACCATGGACCGGTTTTCCCGGTAATCCGTATTTGCA (site GGGACACCTTG)                   0
1  GCGGAGGCATGGACCGGTTTTCCCGGTAATCCGTATTTGTG (site GAGGAGGCTCA)               0.367

Input line: Fill in the blank: the reported recombinant UMI read abundance (log10) of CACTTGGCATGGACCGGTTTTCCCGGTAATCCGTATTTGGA (site CATTTGGCTTC) is ____.
Output line: 0.342
